# TARGET DESC: T1, Sla1-3, P32790
# T1 sequence (P32790 344-424, looked up): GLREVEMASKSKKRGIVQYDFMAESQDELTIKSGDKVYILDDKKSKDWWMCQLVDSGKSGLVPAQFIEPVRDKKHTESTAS
# PROTOCOL NOTES: SPOT array
# CONDITION DESCRIPTION: median of control spots 5475
MEASURED PROPERTY: SPOT intensity

Some entries whose results are on file:
BINDER | ENDPOINT RESULT
VPKEPAPAPPPEPDM | 0
IPSRPAPKPPSSASA | 29
AERNYAPRLPRRETS | 5
LYKRKPILLPDPKPL | 0
AHFQPQRTAPKPPIS | 4

a: FFRRSELYLPNSSKA
b: YHSRRHPLALGFKYV
c: TKPTPPPKPSHLKPK
d: TKFRISLGLPVGAIM
e: GKKVRPLLVLLLSRA
[Q] Arrange the 5 binders from largest to smallest SPOT intensity. Provide the labels, sequenced as the question asks.
[A] a, b, d, c, e

I: ATKSASPTLPTRRSR
II: TEVPIPRRPPPPQAA
[Q] SPOT intensity comparison. Which is larger, I or II ? Could you answer with the label of the item you picked?
[A] I
(I: 1, II: 0)

1: EEEEEHPPLPARRKS
2: NLPKRKPPKLQGPFS
[Q] Among 1 and 2 , whose measured SPOT intensity is the smaller figure? Mark your selection by writing its label.
[A] 1
(1: 1, 2: 213)
